Recorded pIC50, one value per entry.
molecular target: JAK2 (Homo sapiens, UniProt O60674); construct: 5 μl of catalytic domain recombinant Kinase enzyme+Tyr peptide substrate (Invitrogen, CA); experiment: Z'-LYTE kinase assay JAK2
Sequence (O60674 849-1124 limits assumed): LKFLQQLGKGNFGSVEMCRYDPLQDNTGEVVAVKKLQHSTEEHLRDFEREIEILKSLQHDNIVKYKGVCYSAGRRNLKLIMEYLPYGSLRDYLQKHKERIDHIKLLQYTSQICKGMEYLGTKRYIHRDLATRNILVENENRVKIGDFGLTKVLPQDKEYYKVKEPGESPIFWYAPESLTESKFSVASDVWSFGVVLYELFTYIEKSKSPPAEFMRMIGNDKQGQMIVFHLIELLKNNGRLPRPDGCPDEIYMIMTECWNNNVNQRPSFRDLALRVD
pIC50: −log10 of the molar value.

Solved cases (3 shown):
| Molecule | Experimental system | Value |
| --- | --- | --- |
| CN(C)C(=O)C1CN(c2ccc(Nc3cc(NCc4cccc5ccsc45)c(C(N)=O)cn3)cc2F)C1 | JAK2 (Homo sapiens, UniProt O60674) | 7.00 to 8.00 |
| CN(C)S(=O)(=O)NCc1ccc(Nc2cc(NCc3cccc4ccsc34)c(C(N)=O)cn2)cc1 | JAK2 (Homo sapiens, UniProt O60674) | 6.00 to 7.00 |
| CCC(=O)N1CCC(c2ccc(Nc3cc(NCC4CCCC4)c(C(N)=O)cn3)cc2)CC1 | JAK2 (Homo sapiens, UniProt O60674) | 6.00 to 7.00 |

Q: Reported pIC50 for NC(=O)c1cnc(Nc2ccc(CN3CCOCC3)cc2)cc1NC1(c2ccccc2)CC1 : what is it?
Ans: 6.00 to 7.00

Q: Now the compound CS(=O)(=O)Nc1ccc(Nc2cc(NCc3ccccc3)c(C(N)=O)cn2)cc1
Ans: 6.00 to 7.00

====

Recorded pIC50, one value per entry.
Molecular target: TYK2 (Homo sapiens, UniProt P29597)
Construct: 5 μl of catalytic domain recombinant Kinase enzyme+Tyr peptide substrate (Invitrogen, CA); purchased Invitrogen
Sequence (P29597 897-1176 limits assumed): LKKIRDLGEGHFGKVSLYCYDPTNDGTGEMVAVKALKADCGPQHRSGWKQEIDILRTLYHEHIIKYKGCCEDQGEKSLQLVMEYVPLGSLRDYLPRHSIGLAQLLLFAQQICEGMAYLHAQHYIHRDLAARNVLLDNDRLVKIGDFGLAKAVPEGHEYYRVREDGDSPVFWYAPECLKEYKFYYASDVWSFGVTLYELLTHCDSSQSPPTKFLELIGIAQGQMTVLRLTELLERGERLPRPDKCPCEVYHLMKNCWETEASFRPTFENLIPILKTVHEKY
Experiment: Z'-LYTE kinase assay TYK2
Assay type: biochemical
pIC50: −log10 of the molar value.

| Molecule | Measured quantity | Value |
| --- | --- | --- |
| NC(=O)c1cnc(Nc2ccc(N3CCOCC3)cc2)cc1NCc1ccccc1F | pIC50 | 6.00 to 7.00 |

Q: Query the reported pIC50 for TYK2 (Homo sapiens, UniProt P29597); item: CC(=O)N1CCN(c2ccc(Nc3cc(NCC4CCC4)c(C(N)=O)cn3)cc2)CC1
Ans: 7.00 to 8.00

Q: Now the compound NC(=O)c1cnc(Nc2ccc(C(=O)N3CCOCC3)cc2)cc1NCc1ccccc1
Ans: 6.00 to 7.00

Q: Now the compound NC(=O)c1cnc(Nc2cccc(OCCN3CCOCC3)c2)cc1NCc1cccc(F)c1
Ans: < 6.00

Q: Now the compound CC(=O)N1CCN(c2ccc(Nc3cc(NCc4ccc5c(c4)OCO5)c(C(N)=O)cn3)cc2)CC1
Ans: < 6.00

Q: Now the compound COc1ccc(Nc2cc(NCc3cccc4[nH]ccc34)c(C(N)=O)cn2)cc1
Ans: 6.00 to 7.00

====

target: JAK2 (Homo sapiens, UniProt O60674); construct: 5 μl of catalytic domain recombinant Kinase enzyme+Tyr peptide substrate (Invitrogen, CA); assay: Z'-LYTE kinase assay JAK2
Measured quantity: IC50

Solved cases (10 shown):
| Molecule | IC50 |
| --- | --- |
| COc1ccc(Nc2cc(NCc3cccc4c3ccn4C)c(C(N)=O)cn2)cc1 | > 1000 nM |
| NC(=O)c1cnc(Nc2ccc(N3CCOCC3)cc2)c(Cl)c1NCc1cccc(F)c1 | > 1000 nM |
| CN(C)C(=O)c1ccc(Nc2cc(NCc3cccc(F)n3)c(C(N)=O)cn2)cc1 | 100 to 1000 nM |
| CN(C)S(=O)(=O)N(C)c1ccc(Nc2cc(NCc3ccccc3)c(C(N)=O)cn2)cc1 | 100 to 1000 nM |
| CN(C(=O)C1CC1)c1ccc(Nc2cc(NCc3cccc(F)n3)c(C(N)=O)cn2)cc1 | 100 to 1000 nM |
| CCC(=O)N1CCC(Nc2cc(Nc3ccc(C4CCOCC4)cc3)ncc2C(N)=O)CC1 | > 1000 nM |
| CCC(=O)N1CCC(c2ccc(Nc3cc(NC4CCOCC4)c(C(N)=O)cn3)cc2)CC1 | 100 to 1000 nM |
| NC(=O)c1cc(F)c(Nc2ccc(OCCN3CCCC3)cc2)nc1NC1CCCC1 | > 1000 nM |
| CN(C)C(=O)c1ccc(Nc2cc(NCc3cc(F)ccc3F)c(C(N)=O)cn2)cc1 | 10 to 100 nM |
| CN(C)C(=O)c1ccc(Nc2cc(NCc3cccc(-n4ccnc4)c3)c(C(N)=O)cn2)cc1 | 100 to 1000 nM |

Q: Reported IC50 for CC(=O)N1CCN(c2ccc(Nc3cc(NCC4CCC4)c(C(N)=O)cn3)cc2)CC1 : what is it?
Ans: 100 to 1000 nM

Q: Now the compound CC(=O)N(C)c1ccc(Nc2cc(NCc3cccc(F)n3)c(C(N)=O)cn2)cc1
Ans: 100 to 1000 nM

Q: Now the compound CC(C)c1ccc(Nc2cc(NCc3ccccc3F)c(C(N)=O)cn2)cc1
Ans: > 1000 nM

Q: Now the compound CN(C)C(=O)c1ccc(Nc2cc(NCc3ccccc3)c(C(=O)N(C)C)cn2)cc1
Ans: > 1000 nM

Q: Now the compound CN(C)C(=O)c1ccc(Nc2cc(NCc3cccc(-c4ccncc4)c3)c(C(N)=O)cn2)cc1
Ans: 100 to 1000 nM
